Recorded values, source patent US20210380703A1.

Target: T1, biotinylated goat anti-human kappa light chain
T1 construct: positive control of the ELISA
Test: ELISA, positive control; also: test concentration or dose not given here
Metric: optical density (OD)
Use OD as the unit, but write only the number.

{"Binder": "368_A02 (antibody, V domains shown, Group I) VH: EVQLLESGGGLVQPGGSLRLSCAASGFTFDSYGMNWVRQAPGKGLEWVAGINYNGGYKSYADSVKGRFTISRDNSKNTLYLQMNSLRAEDTAVYYCARAANWHDTHLDYWGQGTLVTVSS VL: DIQMTQSPSSLSASVGDRVTITCRASQSIISYVNWYQQKPGKAPKLVIYAATSRASGVPSRFSGSGSGTDFTLTISSLQPEDFATYYCQQSYDTPLTFGGGTKVEIK", "Quantitative readout": 3.69}

In the following, a different binder is considered.
# optical density of 367_A08 (antibody, V domains shown, Group III) VH: EVQLLESGGGLVQPGGSLRLSCAASGFTFDSYGMNWVRQAPGKGLEWVAGINYNGGYTSYADSVKGRFTISRDNSKNTLYLQMNSLRAEDTAVYYCARGANWHDTHLDYWGQGTLVTVSS VL: DIQMTQSPSSLSASVGDRVTITCRASQSILTYLNWYQQKPGKAPKLLIYAVTSRASGVPSRFSGSGSGTDFTLTISSLQPEDFATYYCQQSYDSPLTFGGGTKVEIK = 3.34
